Below, each entry is listed alongside its reported IC50.
# Tested system: rat PGT (Rattus norvegicus, UniProt Q00910)
# Test method notes: PGT inhibition: [3H]PGE2 uptake in MDCK cells stably transfected with rat PGT
# Test parameters: room temperature
# Method: MDCK cells stably transfected with rat PGT ae seeded at 15-20% confluence on 96-well deepwell plates. The day on which the cells are seeded is considered day 1. PGE2 uptake experiments are conducted on day 4. All of the PGE2 uptake experiments are conducted at room temperature. […] 1.5 mL of scintillation solution is added to each well, and intracellular [^3H]PGE2 is counted via a Beta Counter. […]

Answered examples (3):
| Compound | Readout name | Measured |
| --- | --- | --- |
| CCOC(=O)C(CC)(CCC(=O)O)c1ccnc(Nc2ccc(C)cc2)n1 (stereo not shown) | IC50 | < 10000 nM |
| CCC(CC)(CCC(=O)O)c1nc(Nc2ccccc2O)sc1C | IC50 | < 1000 nM |
| CCC(CCC(=O)O)(C(=O)OC1(C)CC1)c1cncc(Nc2ccc(F)cc2F)n1 (racemic) | IC50 | < 1000 nM |

**Query** I'd like to know its IC50. The compound in question is CCOC(=O)C(CC)(CCC(=O)O)c1csc(Nc2ccccc2O)n1 (racemic)
**Result** < 1000 nM

**Query** I'd like to know its IC50. The compound in question is CCOC(=O)C(CC)(CCC(=O)O)c1cncc(Nc2ccc(C)cc2)n1 (racemic)
**Result** < 10000 nM

**Query** I'd like to know its IC50. The compound in question is CCOC(=O)C(CC)(CCC(=O)O)c1cncc(Nc2ccc(F)cc2F)n1 (racemic)
**Result** < 1000 nM
